# assay-system: UniProt P48735
# Sequence (P48735 40-452): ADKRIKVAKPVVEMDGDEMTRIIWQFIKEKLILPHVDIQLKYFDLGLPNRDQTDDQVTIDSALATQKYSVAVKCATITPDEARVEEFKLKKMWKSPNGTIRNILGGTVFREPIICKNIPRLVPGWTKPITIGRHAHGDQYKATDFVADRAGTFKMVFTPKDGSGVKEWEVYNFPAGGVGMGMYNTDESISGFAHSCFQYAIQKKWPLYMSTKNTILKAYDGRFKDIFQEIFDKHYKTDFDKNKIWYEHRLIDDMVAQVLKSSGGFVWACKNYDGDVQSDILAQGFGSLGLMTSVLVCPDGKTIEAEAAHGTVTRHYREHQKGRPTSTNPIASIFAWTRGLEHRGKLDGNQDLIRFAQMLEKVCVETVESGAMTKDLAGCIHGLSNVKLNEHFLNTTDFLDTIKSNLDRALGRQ
# procedure-details: Wild type IDH2 enzyme assay, diaphorase/resazurin coupled
# test-settings: read-out: IDH2 WT % EMax
Please go through the items and note down their Emax.
Give the number; % is assumed, so skip it.

The compound listed as CC(=O)N1CCN(Cc2ccc([C@H](C)Nc3nccc(N4C(=O)OC[C@@H]4C(C)C)n3)cc2)CC1 shows Emax equal to 20.7

The compound listed as N#Cc1ccnc(N2C(=O)CC[C@H]2C(=O)N(c2cncc(F)c2)[C@H](C(=O)NC2CC(F)(F)C2)c2ccccc2Cl)c1 shows Emax equal to 24.7

The compound listed as Cc1ccccc1[C@@H](C(=O)NC1CCCC1)N(C(=O)Cn1cnc2ccccc21)c1cccc(F)c1 shows Emax equal to 18.8

The compound listed as CC(C)[C@H]1COC(=O)N1c1ccnc(N[C@@H](C)c2ccc(C(=O)NC3CCCC3)c(Cl)c2)n1 shows Emax equal to 17.3

The compound listed as Cc1ccccc1C(C(=O)NC1CCCCC1)N(C(=O)Cn1ccnc1C)c1cccc(F)c1 (stereo not drawn) shows Emax equal to 25.2

The compound listed as CC(C)[C@H]1COC(=O)N1c1ccnc(N[C@@H](C)c2ccc(CN3CCC(F)(F)CC3)cc2)n1 shows Emax equal to 19.4

The compound listed as CC(C)(C)CC(C)(C)c1cc(Cn2ccnc2)c(O)c(Cn2ccnc2)c1 shows Emax equal to 19.9

The compound listed as Cc1ccccc1C(C(=O)NC1CCCCC1)N(C(=O)Cn1cnc2ccccc21)c1cccc(F)c1 (stereo not drawn) shows Emax equal to 18

The compound listed as COc1c(C)cc(NC(=O)c2nn(Cc3ccc(F)cc3)c3c2CN(C(=O)c2ccc[nH]2)C[C@]3(C)C(N)=O)cc1C shows Emax equal to 23.9
